Each recorded value in this set is attributed to patent US9062066B2.

inhibition at 10 µM for assorted molecules
system: TNF-α synthesis in J744A.1 macrophages; experiment: inhibition of TNF-α synthesis in LPS-activated macrophages (ELISA); type: cell-based; conditions: Macrophage; 10 μM compound, 100 ng/ml LPS, 6 hours; read-out: Inhibition (%) of TNF-α synthesis
Use % as the unit, but write only the number.

See these solved cases before continuing.
CCNCc1csc(-c2cc3ncnc(Nc4cccc(O)c4)c3s2)c1 [LCB 03-0106]    63
COc1cccc(Nc2ncnc3cc(-c4cccs4)sc23)c1 [LCB 03-0030]    80
CCNCc1ccc(-c2cc3ncnc(Nc4cccc(O)c4)c3s2)cc1 [LCB 03-0042]    98
Cl.OCCNCc1ccc(-c2cc3ncnc(Nc4cccc(O)c4)c3s2)cc1 [LCB 03-0070]    77
CN1CCN(Cc2ccc(-c3cc4ncnc(Nc5cccc(O)c5)c4s3)cc2)CC1 [LCB 03-0036]    61

Could you now look at the following molecule, please?
Qu. I have this molecule here, Oc1cccc(Nc2ncnc3cc(Br)sc23)c1 [LCB 03-0015] , and I need its recorded inhibition at 10 µM.
Ans. 71

====

inhibition at 1 µM for assorted molecules
target: c-Src tyrosine kinase (Homo sapiens (Human), UniProt P12931); experiment: in vitro c-Src tyrosine kinase inhibition (32P-ATP, poly(D4Y)n substrate); type: biochemical; settings: 1 uM compound; read-out: % inhibition against c-Src
Sequence (P12931 whole entry, looked up): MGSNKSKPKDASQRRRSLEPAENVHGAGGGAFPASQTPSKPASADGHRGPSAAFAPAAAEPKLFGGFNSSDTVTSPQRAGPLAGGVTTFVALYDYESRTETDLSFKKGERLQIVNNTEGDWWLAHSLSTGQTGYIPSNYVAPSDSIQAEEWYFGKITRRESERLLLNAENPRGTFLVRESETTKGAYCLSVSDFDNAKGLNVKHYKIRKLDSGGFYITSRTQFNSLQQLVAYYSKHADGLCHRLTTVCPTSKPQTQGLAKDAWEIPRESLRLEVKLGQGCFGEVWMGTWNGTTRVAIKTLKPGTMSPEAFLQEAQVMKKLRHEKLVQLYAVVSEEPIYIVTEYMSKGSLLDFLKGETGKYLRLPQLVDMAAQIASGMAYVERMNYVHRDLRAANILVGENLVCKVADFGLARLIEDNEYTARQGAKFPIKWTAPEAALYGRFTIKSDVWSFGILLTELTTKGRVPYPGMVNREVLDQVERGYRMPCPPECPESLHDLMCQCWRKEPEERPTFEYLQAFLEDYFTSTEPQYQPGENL

See these solved cases before continuing.
CN1CCN(Cc2cccc(-c3cc4ncnc(Nc5cccc(O)c5)c4s3)c2)CC1.Cl    > 80%
CN1CCN(Cc2coc(-c3cc4ncnc(Nc5cccc(O)c5)c4s3)c2)CC1    > 50%
Oc1cccc(Nc2ncnc3cc(-c4ccc(N5CCOCC5)cc4)sc23)c1    > 70%
CN1CCN(Cc2ccc(-c3cc4nccc(Nc5cccc(O)c5)c4s3)cc2)CC1    > 60%
Oc1cccc(Nc2ncnc3cc(-c4ccc(CN5CCCCC5)cc4)sc23)c1    > 80%
Oc1cccc(Nc2ncnc3cc(-c4ccc(CN5CCCCC5)s4)sc23)c1    > 60%
Oc1cccc(Nc2ncnc3cc(-c4cc(CN5CCCC5)co4)sc23)c1    > 50%
COc1cccc(Nc2ncnc3cc(-c4ccsc4)sc23)c1    > 30%
Oc1cccc(Nc2ncnc3cc(-c4ccc(CN5CCOCC5)o4)sc23)c1    > 70%
CN1CCN(CCc2ccc(-c3cc4ncnc(Nc5cccc(O)c5)c4s3)cc2)CC1    > 30%

Qu. I have this molecule here, "Cl.OCCNCc1ccc(-c2cc3ncnc(Nc4cccc(O)c4)c3s2)cc1" , and I need its recorded inhibition at 1 µM.
Ans. > 80%

Qu. Try the molecule "CN1CCN(Cc2cccc(-c3cc4nccc(Nc5cccc(O)c5)c4s3)c2)CC1"
Ans. > 80%

Qu. Try the molecule "C[C@@H]1CCC[C@H](C)N1Cc1ccc(-c2cc3ncnc(Nc4cccc(O)c4)c3s2)cc1.Cl"
Ans. > 50%

Qu. Try the molecule "CN1CCN(C(=O)c2cccc(-c3cc4ncnc(Nc5cccc(O)c5)c4s3)c2)CC1"
Ans. > 50%

Qu. Try the molecule "COc1cccc(Nc2ncnc3cc(-c4ccc(OCCN5CCNCC5)cc4)sc23)c1"
Ans. > 60%

Qu. Try the molecule "Oc1cccc(Nc2ccnc3cc(-c4cccc(CN5CCCCC5)c4)sc23)c1"
Ans. > 70%

Qu. Try the molecule "Cl.Oc1cccc(Nc2ncnc3cc(-c4cccc(CN5CCCC5)c4)sc23)c1"
Ans. > 80%

Qu. Try the molecule "CCN(CC)C(=O)c1cccc(-c2cc3ncnc(Nc4cccc(O)c4)c3s2)c1"
Ans. > 60%

Qu. Try the molecule "Oc1cccc(Nc2ncnc3cc(-c4ccccc4)sc23)c1"
Ans. > 70%

Qu. Try the molecule "Oc1cccc(Nc2ncnc3cc(-c4cc(CN5CCCCC5)co4)sc23)c1"
Ans. > 50%

Qu. Try the molecule "CC(C)CNCc1ccc(-c2cc3ncnc(Nc4cccc(O)c4)c3s2)cc1"
Ans. > 80%

Qu. Try the molecule "CCN(CC)C(=O)Cc1ccc(-c2cc3ncnc(Nc4cccc(O)c4)c3s2)cc1"
Ans. > 40%

Qu. Try the molecule "Cl.Oc1cccc(Nc2ncnc3cc(-c4cccc(CN5CCOCC5)c4)sc23)c1"
Ans. > 80%

Qu. Try the molecule "O=C(c1cccc(-c2cc3ncnc(Nc4cccc(O)c4)c3s2)c1)N1CCCC1"
Ans. > 70%

Qu. Try the molecule "CC(C)CNCc1cccc(-c2cc3ncnc(Nc4cccc(O)c4)c3s2)c1.Cl"
Ans. > 80%

Qu. Try the molecule "CN1CCN(Cc2ccc(-c3cc4ncnc(Nc5cccc(O)c5)c4s3)o2)CC1"
Ans. > 70%

Qu. Try the molecule "Oc1cccc(Nc2ncnc3cc(-c4ccc(CN5CCCCC5)o4)sc23)c1"
Ans. > 70%

Qu. Try the molecule "COc1cccc(Nc2ncnc3cc(-c4ccc(OCCN5CCCC5)cc4)sc23)c1"
Ans. > 60%

Qu. Try the molecule "Oc1cccc(Nc2ncnc3cc(-c4ccc(CCN5CCCCC5)cc4)sc23)c1"
Ans. > 30%

Qu. Try the molecule "Oc1cccc(Nc2ncnc3cc(Br)sc23)c1"
Ans. > 60%

Qu. Try the molecule COC(=O)C1CCCN1Cc1ccc(-c2cc3ncnc(Nc4cccc(O)c4)c3s2)cc1 (centres unmarked)
Ans. > 50%

====

biological target: DDR2 tyrosine kinase (Homo sapiens (Human), UniProt Q16832); assay: in vitro DDR2 tyrosine kinase inhibition (GST-fused kinase domain); format: biochemical; details: 1 uM compound; read-out: % inhibition against DDR2
Sequence (Q16832 563-849): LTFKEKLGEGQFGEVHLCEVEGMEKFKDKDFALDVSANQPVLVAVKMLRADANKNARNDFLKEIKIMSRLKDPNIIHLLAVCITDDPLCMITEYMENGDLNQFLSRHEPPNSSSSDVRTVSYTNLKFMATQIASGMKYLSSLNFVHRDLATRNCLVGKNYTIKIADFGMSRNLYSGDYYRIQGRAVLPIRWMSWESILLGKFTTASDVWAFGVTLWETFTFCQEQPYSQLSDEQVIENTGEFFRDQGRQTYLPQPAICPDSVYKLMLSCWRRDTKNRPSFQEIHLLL
Experimental readout: inhibition at 1 µM

Qu. I have this compound here, CN1CCN(Cc2coc(-c3cc4ncnc(Nc5cccc(O)c5)c4s3)c2)CC1 [LCB 03-0114] , and I need its recorded inhibition at 1 µM.
Ans. > 70%

Qu. Try the compound CN1CCN(Cc2ccc(-c3cc4ncnc(Nc5cccc(O)c5)c4s3)s2)CC1 [LCB 03-0092]
Ans. > 80%

Qu. Try the compound Cl.Oc1cccc(Nc2ncnc3cc(-c4ccc(CN5CCCC5)cc4)sc23)c1 [LCB 03-0034]
Ans. > 80%

Qu. Try the compound CN1CCN(Cc2cccc(-c3cc4ncnc(Nc5cccc(O)c5)c4s3)c2)CC1.Cl [LCB 03-0061]
Ans. > 80%

Qu. Try the compound Oc1cccc(Nc2ncnc3cc(-c4ccc(CN5CCNCC5)o4)sc23)c1 [LCB 03-0090]
Ans. > 70%

Qu. Try the compound O=C(O)c1cccc(-c2cc3ncnc(Nc4cccc(O)c4)c3s2)c1 [LCB 03-0051]
Ans. > 80%

====

inhibition at 1 µM for assorted compounds
biological target: Hck tyrosine kinase (Homo sapiens (Human)); experiment: in vitro Hck tyrosine kinase inhibition; type: biochemical; conditions: 1 uM compound; read-out: % inhibition against Hck
Sequence (P08631 whole entry): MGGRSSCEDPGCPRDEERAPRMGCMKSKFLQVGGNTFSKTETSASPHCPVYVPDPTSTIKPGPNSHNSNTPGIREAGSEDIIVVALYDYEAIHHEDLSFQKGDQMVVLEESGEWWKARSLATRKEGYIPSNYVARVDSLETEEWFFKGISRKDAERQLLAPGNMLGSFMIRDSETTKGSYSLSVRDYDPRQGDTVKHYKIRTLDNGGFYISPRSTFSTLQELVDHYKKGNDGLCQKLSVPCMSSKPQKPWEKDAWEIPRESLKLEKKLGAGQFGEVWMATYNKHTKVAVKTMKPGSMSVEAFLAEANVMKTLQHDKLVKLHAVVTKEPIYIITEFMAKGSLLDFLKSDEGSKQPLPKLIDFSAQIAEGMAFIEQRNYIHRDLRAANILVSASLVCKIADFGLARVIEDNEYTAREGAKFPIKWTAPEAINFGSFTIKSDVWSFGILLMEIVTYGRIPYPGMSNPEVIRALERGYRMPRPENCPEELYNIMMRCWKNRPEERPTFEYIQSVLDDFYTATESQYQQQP

Oc1cccc(Nc2ncnc3cc(-c4ccccc4)sc23)c1    > 70%
N#Cc1ccc(-c2cc3ncnc(Nc4cccc(O)c4)c3s2)cc1    > 70%
Oc1cccc(Nc2ncnc3cc(-c4cc(CN5CCOCC5)cs4)sc23)c1    > 50%

Qu. I have this compound here, "COc1cccc(Nc2ncnc3cc(-c4ccc(OCCc5ccccn5)cc4)sc23)c1" , and I need its recorded inhibition at 1 µM.
Ans. > 60%

====

test system: oxazolone-induced skin inflammation of Balb/C mouse ears; test: mouse skin inflammatory model induced by oxazolone (ear thickness); type: in vivo; details: 20 ul of 0.1% compound topical on ear, 36 hours after oxazolone
Inhibition (%) of increase of ear thickness for assorted compounds
Use % as the unit, but write only the number.

See these solved cases before continuing.
Oc1cccc(Nc2ncnc3cc(-c4ccc(CN5CCCCC5)o4)sc23)c1    51
CN1CCN(Cc2cccc(-c3cc4nccc(Nc5cccc(O)c5)c4s3)c2)CC1    63
Oc1cccc(Nc2ncnc3cc(-c4ccc(CN5CCNCC5)o4)sc23)c1    56
Oc1cccc(Nc2ncnc3cc(-c4ccc(CN5CCCCC5)cc4)sc23)c1    31

Qu. I have this compound here, "CCNCc1ccc(-c2cc3ncnc(Nc4cccc(O)c4)c3s2)cc1" , and I need its recorded Inhibition (%) of increase of ear thickness.
Ans. 33

Qu. Try the compound "CCNCc1ccc(-c2cc3ncnc(Nc4cccc(O)c4)c3s2)s1"
Ans. 43

Qu. Try the compound "Oc1cccc(Nc2ccnc3cc(-c4ccc(CN5CCCC5)cc4)sc23)c1"
Ans. 53

Qu. Try the compound Cc1cc2cc(Nc3ccnc4cc(C(=O)N5CC[C@@H](O)C5)sc34)ccc2n1C(=O)NC1CC1 [Control compound 1, reference compound]
Ans. 3

====

inhibition at 1 µM for assorted compounds
molecular target: DDR2 tyrosine kinase (Homo sapiens (Human)); assay: in vitro DDR2 tyrosine kinase inhibition (GST-fused kinase domain); format: biochemical; conditions: 1 uM compound; read-out: % inhibition against DDR2

See these solved cases before continuing.
Oc1cccc(Nc2ncnc3cc(-c4ccc(Cl)cc4)sc23)c1 [LCB 03-0019]    > 70%
Cl.Oc1cccc(Nc2ncnc3cc(-c4cccc(CN5CCNCC5)c4)sc23)c1 [LCB 03-0064]    > 80%
CN1CCN(Cc2ccc(-c3cc4ncnc(Nc5cccc(O)c5)c4s3)o2)CC1 [LCB 03-0087]    > 70%
Oc1cccc(Nc2ncnc3cc(-c4cccc(CCN5CCNCC5)c4)sc23)c1 [LCB 03-0079]    > 80%
CN1CCN(C(=O)c2ccc(-c3cc4ncnc(Nc5cccc(O)c5)c4s3)cc2)CC1 [LCB 03-0052]    > 80%

Qu. I have this compound here, Oc1cccc(Nc2ncnc3cc(-c4cc(CN5CCOCC5)cs4)sc23)c1 [LCB 03-0104] , and I need its recorded inhibition at 1 µM.
Ans. > 80%

Qu. Try the compound Cl.Oc1cccc(Nc2ncnc3cc(-c4cccc(CCN5CCCC5)c4)sc23)c1 [LCB 03-0076]
Ans. > 80%

Qu. Try the compound Oc1cccc(Nc2ncnc3cc(-c4ccc(CN5CCOCC5)cc4)sc23)c1 [LCB 03-0032]
Ans. > 80%

Qu. Try the compound Oc1cccc(Nc2ccnc3cc(-c4ccc(CN5CCCCC5)cc4)sc23)c1 [LCB 03-0097]
Ans. > 80%

Qu. Try the compound CN1CCN(CCc2ccc(-c3cc4ncnc(Nc5cccc(O)c5)c4s3)cc2)CC1 [LCB 03-0045]
Ans. > 80%

Qu. Try the compound OCC1CCCN1Cc1ccc(-c2cc3ncnc(Nc4cccc(O)c4)c3s2)cc1 (stereo not drawn) [LCB 03-0057]
Ans. > 80%

Qu. Try the compound Oc1cccc(Nc2ncnc3cc(-c4ccc(CNC5CC5)cc4)sc23)c1 [LCB 03-0040]
Ans. > 80%

Qu. Try the compound Oc1cccc(Nc2ccnc3cc(-c4ccc(CN5CCCC5)cc4)sc23)c1 [LCB 03-0080]
Ans. > 80%

Qu. Try the compound O=C(Cc1ccc(-c2cc3ncnc(Nc4cccc(O)c4)c3s2)cc1)N1CCCC1 [LCB 03-0049]
Ans. > 80%

Qu. Try the compound CCNCc1csc(-c2cc3ncnc(Nc4cccc(O)c4)c3s2)c1 [LCB 03-0106]
Ans. > 70%

Qu. Try the compound Oc1cccc(Nc2ncnc3cc(-c4ccccc4)sc23)c1 [LCB 03-0008]
Ans. > 70%

Qu. Try the compound Oc1cccc(Nc2ncnc3cc(-c4ccoc4)sc23)c1 [LCB 03-0039]
Ans. > 70%

Qu. Try the compound Oc1cccc(Nc2ccnc3cc(-c4cccc(CN5CCNCC5)c4)sc23)c1 [LCB 03-0111]
Ans. > 90%
